The reported measurements were obtained from patent US20250197490A1.

Item-by-item account of hCRHR1-Luc 0.5 nM CRH IC50
- tested-on: T1, corticotropin-releasing hormone (CRH) peptide (human and mouse, UniProt P01143 145-185 (rat entry), not fully specified)
- T1 peptide: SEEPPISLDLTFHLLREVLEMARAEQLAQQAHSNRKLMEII
- protocol-details: cell-based or functional assay
// note: answer is a bare numeric in pM

>>> reported_measurement("PR302341-11 (antibody, human IgG1, kappa, V domains shown) VH: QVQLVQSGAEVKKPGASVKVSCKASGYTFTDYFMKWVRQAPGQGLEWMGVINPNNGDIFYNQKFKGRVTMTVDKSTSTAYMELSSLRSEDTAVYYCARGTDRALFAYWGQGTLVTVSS VL: DIVMTQTPLSLSVTPGQPASISCRSGQSIVHSDGNTYLEWYLQKPGQSPQLLIYKVSNRFSGVPDRFSGSGSGTDFTLKISRVEAEDVGVYYCFQGSHIPWTFGGGTKVEIKR")
467
>>> reported_measurement("PR302341-18 (antibody, human IgG1, kappa, V domains shown) VH: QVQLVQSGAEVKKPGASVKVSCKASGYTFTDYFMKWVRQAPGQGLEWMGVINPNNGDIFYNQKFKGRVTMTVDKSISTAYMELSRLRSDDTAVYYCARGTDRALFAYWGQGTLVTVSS VL: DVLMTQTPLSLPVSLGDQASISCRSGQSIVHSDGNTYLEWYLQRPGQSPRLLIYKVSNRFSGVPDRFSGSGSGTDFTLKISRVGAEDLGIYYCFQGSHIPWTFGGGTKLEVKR")
169
>>> reported_measurement("PR302341-14 (antibody, human IgG1, kappa, V domains shown) VH: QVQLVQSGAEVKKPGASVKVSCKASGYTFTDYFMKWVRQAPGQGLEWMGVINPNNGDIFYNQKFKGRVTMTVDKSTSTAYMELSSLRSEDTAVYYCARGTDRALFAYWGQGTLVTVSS VL: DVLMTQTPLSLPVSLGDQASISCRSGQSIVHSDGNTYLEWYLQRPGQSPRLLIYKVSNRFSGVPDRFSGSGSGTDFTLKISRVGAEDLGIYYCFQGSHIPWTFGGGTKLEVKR")
75

Request: So what does the record say about hCRHR1-Luc 0.5 nM CRH IC50 for PR302341-8 (antibody, human IgG1, kappa, V domains shown) VH: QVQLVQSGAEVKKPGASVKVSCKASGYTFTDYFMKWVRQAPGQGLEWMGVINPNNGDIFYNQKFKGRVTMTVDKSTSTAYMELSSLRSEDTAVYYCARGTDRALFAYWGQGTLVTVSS VL: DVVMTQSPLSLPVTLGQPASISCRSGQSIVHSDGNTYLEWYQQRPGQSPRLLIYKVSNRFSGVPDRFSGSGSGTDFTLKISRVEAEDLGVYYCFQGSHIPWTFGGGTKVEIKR ?
Result: 165

Request: So what does the record say about hCRHR1-Luc 0.5 nM CRH IC50 for PR302341-23 (antibody, human IgG1, kappa, V domains shown) VH: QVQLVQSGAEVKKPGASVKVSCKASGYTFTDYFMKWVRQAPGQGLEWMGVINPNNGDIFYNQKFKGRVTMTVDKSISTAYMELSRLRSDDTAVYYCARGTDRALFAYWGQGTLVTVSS VL: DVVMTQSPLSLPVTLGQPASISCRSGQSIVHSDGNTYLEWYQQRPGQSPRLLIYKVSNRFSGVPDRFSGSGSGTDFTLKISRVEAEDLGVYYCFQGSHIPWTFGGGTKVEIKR ?
Result: 43
